Test system: HepG2 cells
Experiment: Cell stress panel (CSP), 24 h, 8 concentrations, BIFROST global PoD
Type: cell-based
Conditions: HepG2; cell stress panel PoD
Where a name gives a salt, the structure may show the parent alone.
Grouping rule (pod_cell_stress PoD): I = under 0.2 µM, II = from 0.2 µM up to 30 µM, III = 30 µM and over

# bin label for NNc1nncc2ccccc12 [Hydralazine hydrochloride] II

Also need CC(C)[C@H](N)C(=O)O , thanks. III

// repeat for CC(C)(C)c1ccc(CCOc2ncnc3ccccc23)cc1 and report I

And the next one, Nc1cc([N+](=O)[O-])cc(Cl)c1O ? II

Try this compound next: CC(C)Cc1ccc(C(C)C(=O)O)cc1 (stereo not drawn) II

# repeat for O=C(O)c1ccc2c(c1)C(=O)OC2=O [Trimellitic_anhydride] III

Now the same for CCOc1cc(CCC(C)=O)ccc1O [Ethylzingerone, 4-(3-Ethoxy-4-hydroxyphenyl)butan-2-one] II

Same for CC(=O)N1CCN(c2ccc(OC[C@H]3CO[C@](Cn4ccnc4)(c4ccc(Cl)cc4Cl)O3)cc2)CC1 I

Record: CCOC(=O)c1ccc(N)cc1 [Benzocaine, Ethyl 4-aminobenzoate] III

---

System: Thyroid hormone receptor alpha, THRA (h)
Experiment: IPP THRA coactivator recruitment (agonist)
Type: biochemical, human
Conditions: 100 uM; agonist; T3; * denotes assay interference (2-Amino-6-chloro-4-nitrophenol, HC Red 3)
Record form. Attribute: IPP screening %, Coactivator recruitment. Fill in for each entry.
Hi! Could you send only the number? It should be in %, unit omitted.

// query IPP screening %, Coactivator recruitment value for entry O=P1(N(CCCl)CCCl)NCCCO1 (centres unmarked) [Cyclophosphamide] -1.0

Also CCOC(=O)c1ccc(N)cc1 [Benzocaine, Ethyl 4-aminobenzoate] , if possible. 2.0

Consider next the molecule CC(C)[C@H](N)C(=O)O in the same way. 2.0

Another: COc1ccc(Cl)cc1C(=O)NCCc1ccc(S(=O)(=O)NC(=O)NC2CCCCC2)cc1 [Glybenclamide] 2.0

Okay, and CCCCCCC(O)CO (centres unmarked) ? 2.0

---

Exercise: state measured Specific binding for each of the compounds provided.
Target: Voltage-dependent L-type Ca2+ channel (dihydropyridine site), CACNA1C (r) (Rattus norvegicus, UniProt P22002)
Sequence (P22002 whole entry): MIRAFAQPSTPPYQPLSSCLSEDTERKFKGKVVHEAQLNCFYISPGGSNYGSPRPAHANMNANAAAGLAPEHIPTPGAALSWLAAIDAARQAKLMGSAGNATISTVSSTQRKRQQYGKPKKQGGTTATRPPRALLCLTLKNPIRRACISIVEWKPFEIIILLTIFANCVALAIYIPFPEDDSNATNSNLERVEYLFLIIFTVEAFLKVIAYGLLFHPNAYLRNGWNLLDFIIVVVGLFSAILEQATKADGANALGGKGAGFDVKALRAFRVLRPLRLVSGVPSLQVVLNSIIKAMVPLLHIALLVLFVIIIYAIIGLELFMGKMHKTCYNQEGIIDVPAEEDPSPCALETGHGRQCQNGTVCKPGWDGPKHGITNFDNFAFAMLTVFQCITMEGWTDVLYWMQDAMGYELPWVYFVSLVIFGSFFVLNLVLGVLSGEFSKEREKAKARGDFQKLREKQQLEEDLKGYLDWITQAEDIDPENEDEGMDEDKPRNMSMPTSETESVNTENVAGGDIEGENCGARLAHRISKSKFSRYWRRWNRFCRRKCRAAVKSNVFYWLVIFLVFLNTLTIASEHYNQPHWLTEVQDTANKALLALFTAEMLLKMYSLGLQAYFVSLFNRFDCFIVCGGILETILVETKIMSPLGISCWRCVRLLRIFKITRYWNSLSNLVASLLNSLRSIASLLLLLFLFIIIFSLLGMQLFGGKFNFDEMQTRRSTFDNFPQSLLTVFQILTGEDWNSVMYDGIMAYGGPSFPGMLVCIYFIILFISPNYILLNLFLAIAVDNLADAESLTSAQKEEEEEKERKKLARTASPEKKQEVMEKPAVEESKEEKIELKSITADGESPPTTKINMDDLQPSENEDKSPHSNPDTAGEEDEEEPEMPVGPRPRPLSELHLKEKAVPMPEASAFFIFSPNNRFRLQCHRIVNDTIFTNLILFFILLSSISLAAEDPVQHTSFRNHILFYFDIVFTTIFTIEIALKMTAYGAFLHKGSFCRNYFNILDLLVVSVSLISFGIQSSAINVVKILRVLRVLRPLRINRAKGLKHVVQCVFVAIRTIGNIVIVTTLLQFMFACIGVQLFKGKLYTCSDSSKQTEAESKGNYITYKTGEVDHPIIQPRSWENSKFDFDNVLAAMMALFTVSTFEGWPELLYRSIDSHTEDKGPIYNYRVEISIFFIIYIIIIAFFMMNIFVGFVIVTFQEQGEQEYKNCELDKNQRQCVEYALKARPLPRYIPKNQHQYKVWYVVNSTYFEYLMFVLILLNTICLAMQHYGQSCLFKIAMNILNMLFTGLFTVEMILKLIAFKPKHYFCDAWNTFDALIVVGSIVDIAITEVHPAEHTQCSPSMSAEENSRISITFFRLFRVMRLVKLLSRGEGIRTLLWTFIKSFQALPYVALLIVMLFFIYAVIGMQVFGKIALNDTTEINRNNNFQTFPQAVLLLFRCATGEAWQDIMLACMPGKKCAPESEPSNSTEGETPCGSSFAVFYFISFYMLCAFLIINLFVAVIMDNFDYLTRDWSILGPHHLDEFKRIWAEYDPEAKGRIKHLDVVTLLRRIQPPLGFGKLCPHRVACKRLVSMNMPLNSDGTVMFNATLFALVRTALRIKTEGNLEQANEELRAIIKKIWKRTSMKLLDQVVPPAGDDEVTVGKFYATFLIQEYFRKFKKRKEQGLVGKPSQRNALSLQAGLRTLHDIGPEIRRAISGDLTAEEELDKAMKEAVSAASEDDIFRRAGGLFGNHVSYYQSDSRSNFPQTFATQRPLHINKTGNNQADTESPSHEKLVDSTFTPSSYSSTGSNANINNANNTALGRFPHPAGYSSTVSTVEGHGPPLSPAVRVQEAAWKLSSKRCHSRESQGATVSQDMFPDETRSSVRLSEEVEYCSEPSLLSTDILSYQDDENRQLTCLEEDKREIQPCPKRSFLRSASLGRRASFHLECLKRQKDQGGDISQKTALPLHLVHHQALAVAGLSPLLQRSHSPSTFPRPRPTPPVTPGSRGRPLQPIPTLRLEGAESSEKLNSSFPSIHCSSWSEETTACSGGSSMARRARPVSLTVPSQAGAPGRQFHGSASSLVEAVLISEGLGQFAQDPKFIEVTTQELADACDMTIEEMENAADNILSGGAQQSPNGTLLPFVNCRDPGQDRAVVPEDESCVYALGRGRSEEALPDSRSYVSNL
Assay type: binding
Use % as the unit, but write only the number.

# input compound: O=C1CN(N=Cc2ccc([N+](=O)[O-])o2)C(=O)N1 ; wanted: its Specific binding -6.9

// query: CCN(CC)CCNC(=O)c1cc(Cl)c(N)cc1OC [Metoclopramide] -18.6

Ok, now Cn1cnc([N+](=O)[O-])c1Sc1ncnc2nc[nH]c12 -9.0

Then this compound: C[C@H]1O[C@@H](O[C@H]2[C@@H](O)C[C@H](O[C@H]3[C@@H](O)C[C@H](O[C@H]4CC[C@@]5(C)[C@H](CC[C@@H]6[C@@H]5C[C@@H](O)[C@]5(C)[C@@H](C7=CC(=O)OC7)CC[C@]65O)C4)O[C@@H]3C)O[C@@H]2C)C[C@H](O)[C@@H]1O 0.7

What do you have for C[C@@H]1C[C@H]2[C@@H]3CCC4=CC(=O)C=C[C@]4(C)[C@@]3(F)[C@@H](O)C[C@]2(C)[C@@]1(O)C(=O)CO ? -36.4

// query: CCOC(=O)c1ccc(N)cc1 [Benzocaine, Ethyl 4-aminobenzoate] 10.5

Can you check CCOP(=S)(OCC)Oc1nc(Cl)c(Cl)cc1Cl next? 47.7

Thanks! And COc1ccc(Cl)cc1C(=O)NCCc1ccc(S(=O)(=O)NC(=O)NC2CCCCC2)cc1 [Glybenclamide] ? 18.0

Same again, this time with CC(C)Cc1ccc(C(C)C(=O)O)cc1 (stereo not shown) -14.3

Next: CC1(C)O[C@@H]2[C@@H](CO[C@@]3(COS(N)(=O)=O)OC(C)(C)O[C@@H]23)O1 [Topiramate] -33.5

---

Test system: Sodium channel protein type 5 subunit alpha (site 2), SCN5A (r)
Assay type: binding, rat
Details: IPP screening at 100 uM; control veratridine
Peptide text beside a SMILES is read from it.
Could you please mark Met for values of Specific binding below 30% and Not met for values at or above it?

Please state whether Specific binding is below 30% for CCOc1cc(CCC(C)=O)ccc1O [Ethylzingerone, 4-(3-Ethoxy-4-hydroxyphenyl)butan-2-one] Met

Now the same for Cc1c(O)cccc1O [2-methyl-1,3-benzenediol, 2-Methylbenzene-1,3-diol] Not met

Next entry: CCN(CC)C(=O)c1cccc(C)c1 [DEET, N,N-Diethyl-3-methylbenzamide] Met

Would you mind doing CC(=O)CC(c1ccccc1)c1c([O-])c2ccccc2oc1=O.[Na+] (stereo not drawn) [Warfarin] as well? Met

Do the same for CC(C)(CO)C(O)C(=O)NCCCO (stereo not drawn) [Panthenol] please Met

Next up: CC(C)[C@H](N)C(=O)O [L-valine, L-Valine] Met

Okay, and COC(=O)[C@H](Cc1ccccc1)NC(=O)[C@@H](N)CC(=O)O [Aspartame] (H-Asp-Phe-OMe) ? Met

Another molecule: Nc1cc([N+](=O)[O-])cc(Cl)c1O [2-Amino-6-chloro-4-nitrophenol] Not met

Same thing, different molecule: Nc1ccc(NCCO)c([N+](=O)[O-])c1 [HC Red 3, 2-(4-Amino-2-nitroanilino)ethan-1-ol] Not met

And then CCCCCCC(O)CO (stereo not drawn) [1,2-Octanediol, Octane-1,2-diol] , what is it? Met

---

Molecular target: Progesterone receptor, PGR (h) (Homo sapiens, UniProt P06401)
Sequence (P06401 1-933): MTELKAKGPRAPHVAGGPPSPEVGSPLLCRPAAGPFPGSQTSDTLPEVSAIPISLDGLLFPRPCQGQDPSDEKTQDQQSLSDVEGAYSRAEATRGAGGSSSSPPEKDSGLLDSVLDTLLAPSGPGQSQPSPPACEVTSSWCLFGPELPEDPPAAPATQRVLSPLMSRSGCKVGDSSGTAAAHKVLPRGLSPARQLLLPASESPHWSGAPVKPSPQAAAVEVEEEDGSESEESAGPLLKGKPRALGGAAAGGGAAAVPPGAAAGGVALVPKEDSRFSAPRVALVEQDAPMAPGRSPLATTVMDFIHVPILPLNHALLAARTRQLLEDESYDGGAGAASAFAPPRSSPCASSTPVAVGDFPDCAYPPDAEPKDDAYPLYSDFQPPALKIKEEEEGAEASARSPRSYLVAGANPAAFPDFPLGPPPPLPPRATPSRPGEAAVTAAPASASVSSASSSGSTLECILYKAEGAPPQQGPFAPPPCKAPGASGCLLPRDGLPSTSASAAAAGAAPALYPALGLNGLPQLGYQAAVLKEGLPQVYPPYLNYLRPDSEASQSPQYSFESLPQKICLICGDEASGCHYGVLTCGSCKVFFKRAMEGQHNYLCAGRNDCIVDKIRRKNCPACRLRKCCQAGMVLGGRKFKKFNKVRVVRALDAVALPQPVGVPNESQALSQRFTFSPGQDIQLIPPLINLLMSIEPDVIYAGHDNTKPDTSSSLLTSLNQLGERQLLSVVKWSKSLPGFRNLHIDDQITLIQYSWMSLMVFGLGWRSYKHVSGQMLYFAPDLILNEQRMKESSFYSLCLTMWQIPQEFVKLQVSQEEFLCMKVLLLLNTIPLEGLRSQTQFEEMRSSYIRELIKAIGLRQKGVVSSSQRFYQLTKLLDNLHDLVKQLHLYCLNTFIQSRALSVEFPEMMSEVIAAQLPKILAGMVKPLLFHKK
Assay: biochemical
pEC50: −log10 of the molar value.
Attribute measured: pEC50

Given O=P1(N(CCCl)CCCl)NCCCO1 (stereo not shown) [Cyclophosphamide] , state its recorded pEC50. < 3.52

---

Task for the reader: assign each of the following molecules its reported Specific binding.
Molecular target: Adenosine receptor A2a, ADORA2A (h) (Homo sapiens, UniProt P29274)
Construct: purchased Eurofins Cerep (SafetyScreen44-based IPP panel)
Sequence (P29274 whole entry): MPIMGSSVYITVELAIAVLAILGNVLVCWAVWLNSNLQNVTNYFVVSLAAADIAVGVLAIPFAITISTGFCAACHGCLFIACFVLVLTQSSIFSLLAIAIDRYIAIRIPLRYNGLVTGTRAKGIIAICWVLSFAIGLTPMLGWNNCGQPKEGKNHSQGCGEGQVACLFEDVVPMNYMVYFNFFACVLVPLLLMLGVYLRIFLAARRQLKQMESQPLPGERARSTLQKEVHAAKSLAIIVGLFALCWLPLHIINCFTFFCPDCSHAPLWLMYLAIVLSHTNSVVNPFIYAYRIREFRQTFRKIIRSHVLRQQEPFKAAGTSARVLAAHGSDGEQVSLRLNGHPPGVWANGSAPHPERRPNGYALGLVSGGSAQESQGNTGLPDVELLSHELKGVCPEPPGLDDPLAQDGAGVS
Assay: IPP ADORA2A binding (agonist radioligand)
Settings: IPP screening at 100 uM; control NECA
Peptide text beside a SMILES is read from it.
Numeric only. Scale: %

Query for Adenosine receptor A2a, ADORA2A (h) (Homo sapiens, UniProt P29274): what Specific binding does the record show for CCN(CC)CCNC(=O)c1cc(Cl)c(N)cc1OC [Metoclopramide] ? 6.5

Likewise for CC(=O)CC(c1ccccc1)c1c([O-])c2ccccc2oc1=O.[Na+] (stereo not shown) ? -14.2

Request: CCOc1cc(CCC(C)=O)ccc1O [Ethylzingerone, 4-(3-Ethoxy-4-hydroxyphenyl)butan-2-one] 4.5

Query NS(=O)(=O)c1cc(C(=O)O)c(NCc2ccco2)cc1Cl [Furosemide] next 15.2

Another molecule: CC(C)[C@H](N)C(=O)O -4.2

Now try CCOC(=O)c1ccc(N)cc1 [Benzocaine, Ethyl 4-aminobenzoate] . 36.2

# repeat for O=C(O)c1ccc2c(c1)C(=O)OC2=O [Trimellitic anhydride] 6.5

Request: O=S(=O)(O)NC1CCCCC1 [Cyclamate, Sodium cyclohexylsulfamate] 1.0

Next: C[C@@H]1C[C@H]2[C@@H]3CCC4=CC(=O)C=C[C@]4(C)[C@@]3(F)[C@@H](O)C[C@]2(C)[C@@]1(O)C(=O)CO -9.1

Subsequent entry: O=P1(N(CCCl)CCCl)NCCCO1 (stereo not shown) [Cyclophosphamide] 15.0

Another molecule to look at: CC1(C)O[C@@H]2[C@@H](CO[C@@]3(COS(N)(=O)=O)OC(C)(C)O[C@@H]23)O1 [Topiramate] 0.9

And CCCCCCC(O)CO (stereo not shown) ? 1.4

# repeat for COC(=O)[C@H](Cc1ccccc1)NC(=O)[C@@H](N)CC(=O)O [Aspartame] (H-Asp-Phe-OMe) 0.3
